system: NiR M150G (Alcaligenes faecalis, UniProt P38501, M186G)
Construct: His tag (C, cleaved yes); made in house
Sequence (P38501 other isoform, or with tags, fused parts or gaps M186G): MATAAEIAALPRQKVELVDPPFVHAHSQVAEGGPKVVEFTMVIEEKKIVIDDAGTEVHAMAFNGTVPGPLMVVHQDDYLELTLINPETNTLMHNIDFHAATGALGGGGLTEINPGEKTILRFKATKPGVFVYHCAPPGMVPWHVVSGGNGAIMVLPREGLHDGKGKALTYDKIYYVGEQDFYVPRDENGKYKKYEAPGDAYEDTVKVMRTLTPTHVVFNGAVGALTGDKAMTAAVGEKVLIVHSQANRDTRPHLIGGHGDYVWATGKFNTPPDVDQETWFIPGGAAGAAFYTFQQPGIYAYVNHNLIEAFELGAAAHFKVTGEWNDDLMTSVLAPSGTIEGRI
assay comment: Activity assay monitoring oxidation of pseudoazurin, NiR M150G with external ligands
Type: biochemical, A. faecalis S-6
condition notes: in words
recorded endpoint: effect of external ligand on catalytic activity of NiR M150G

{"columns": ["compound", "result"],
 "data": [
  ["CCSC [ethylmethylsulfide]", "activity doubled"],
  ["NC=O [formamide]", "activity doubled"]
]}

###

system: NiR M150G (Alcaligenes faecalis, UniProt P38501, M186G)
Construct: His tag (C, cleaved yes); made in house
assay comment: Activity assay monitoring oxidation of pseudoazurin, NiR M150G with external ligands
Assay type: biochemical, A. faecalis S-6
condition notes: pseudoazurin 275-325 μM, nitrite 5 mM, 50 mM Mops pH 7.0
recorded endpoint: kcat^sat of NiR M150G saturated with external ligand (s⁻¹)

{"columns": ["compound", "unit spec", "value operator", "result number"],
 "data": [
  ["CCSC [ethylmethylsulfide]", "s⁻¹", ">", 292],
  ["CC(N)=O [acetamide]", "s⁻¹", "=", 374],
  ["CSC [dimethylsulfide]", "s⁻¹", "=", 373],
  ["NC=O [formamide]", "s⁻¹", ">", 255]
]}

###

system: type-1 site of NiR M150G (Alcaligenes faecalis, UniProt P38501, M186G)
Construct: His tag (C, cleaved yes)
assay comment: biochemical
pKd: −log10 of the molar value.
# reported pKd; entries follow
recorded endpoint: pKd

{"columns": ["molecule", "result number"],
 "data": [
  ["CSC [dimethylsulfide]", 1.68],
  ["Cc1cscn1 [4-methylthiazole]", 1.66],
  ["CC#N [acetonitrile]", 1.15],
  ["c1c[nH]cn1 [imidazole]", 1.28],
  ["CC(N)=O [acetamide]", 1.15],
  ["CCSC [ethylmethylsulfide]", 1.85]
]}

###

system: NiR M150G (Alcaligenes faecalis, UniProt P38501, M186G)
Construct: His tag (C, cleaved yes)
assay comment: Activity assay monitoring oxidation of pseudoazurin, NiR M150G with external ligands
# reported Kd; entries follow

{"columns": ["molecule", "value operator", "Kd, mM"],
 "data": [
  ["CCSC [ethylmethylsulfide]", ">", 73],
  ["CSC [dimethylsulfide]", "=", 34]
]}
